- Experimental System: T1, recombinant fibronectin domain ED-B (His)6 (human, UniProt P02751 1266-1356)
- T1 construct: domain: ED-B; Produced by standard procedures; immobilised on ELISA plates or on the BIAcore chip; also called recombinant ED-B; human ED-B
- Assay Info: SPR (BIAcore), ED-B immobilised on chip, Fab in flow
koff reference
Response body: numeric value in s⁻¹, unit text excluded.

Some entries whose results are on file:
Binder: MOR02613 (Fab, V domains shown, HuCAL GOLD Fab, VH3/L2) VH: QVQLVESGGGLVQPGGSLRLSCAASGFTFSNYTMTWVRQAPGKGLEWVSFIIGSGSNTSYADSVKGRFTISRDNSKNTLYLQMNSLRAEDTAVYYCARYVNGFDIWGQGTLVTVSS VL: DIALTQPASVSGSPGQSITISCTGTSSDVGVYYYVSWYQQHPGKAPKLMIYYDSKRPSGVSNRFSGSKSGNTASLTISGLQAEDEADYYCQTYAKKDYSLVFGGGTKLTVLG
koff [s⁻¹]: 0.13
//
Binder: MOR02619 (Fab, V domains shown, HuCAL GOLD Fab, VH4/L1) VH: QVQLQESGPGLVKPGETLSLTCTVSGGSISSYYWSWIRQAPGKGLEWIGIGHWGSTQYNPSLKGRVTISVDTSKNQFSLKLSSVTAEDTAVYYCARFFDVWGQGTLVTVSS VL: DIVLTQPPSVSGAPGQRVTISCSGSSSNIGSNTVRWYQQLPGTAPKLLIYSNNKRPSGVPDRFSGSKSGTSASLAITGLQSEDEADYYCQSWDGASTGVFGGGTKLTVLG
koff [s⁻¹]: 0.012
//
Binder: MOR02610 (Fab, V domains shown, HuCAL GOLD Fab, VH1B/L1) VH: QVQLVQSGAEVKKPGASVKVSCKASGYTFTGFYINWVRQAPGQGLEWMGWINPYSGNTRYAQKFQGRVTMTRDTSISTAYMELSSLRSEDTAVYYCARSPVYYKYDYWGQGTLVTVSS VL: DIVLTQPPSVSGAPGQRVTISCSGSSGNIGINFVNWYQQLPGTAPKLLIYKNNKRPSGVPDRFSGSKSGTSASLAITGLQSEDEADYYCQSYDKTSSTYVFGGGTKLTVLG
koff [s⁻¹]: 0.091

Quick one: koff of MOR02618 (Fab, V domains shown, HuCAL GOLD Fab, VH3/L3) VH: QVQLVESGGGLVQPGGSLRLSCAASGFTFNNYGMTWVRQAPGKGLEWVSSIYGYGSNTYYADSVKGRFTISRDNSKNTLYLQMNSLRAEDTAVYYCARNYWVFAYWGQGTLVTVSS VL: DIELTQPPSVSVAPGQTARISCSGDNIPGKSVHWYQQKPGQAPVLVIYGKMNRPSGIPERFSGSNSGNTATLTISGTQAEDEADYYCQSYDNFNDSVVFGGGTKLTVLG ?
0.2

Reference source: patent US20060115428A1
